Assign percentage of EdU-negative to each entry below.
- Tested on: MCF7;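 further: secreted proteins added to cultured cells, EdU pulse at the end, nuclei found by Hoechst imaging, EdU status from nuclear versus surrounding ring intensity ratio, PBS as neutral control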
- Test details: percentage of EdU-negative (G0-arrested) nuclei per well, 72 h; higher = more G0 arrest
- Test context: protein concentration 0.225 µM; reference: sequence is the full UniProt precursor, the tested protein was the secreted form or ectodomain
Numbers only, in %.

1. MSSENCFVAENSSLHPESGQENDATSPHFSTRHEGSFQVPVLCAVMNVVFITILIIALIALSVGQYNCPGQYTFSMPSDSHVSSCSEDWVGYQRKCYFISTVKRSWTSAQNACSEHGATLAVIDSEKDMNFLKRYAGREEHWVGLKKEPGHPWKWSNGKEFNNWFNVTGSDKCVFLKNTEVSSMECEKNLYWICNKPYK
23.6
2. MFSTKALLLAGLISTALAGPWANICAGKSSNEIRTCDRHGCGQYSAQRSQRPHQGVDILCSAGSTVYAPFTGMIVGQEKPYQNKNAINNGVRISGRGFCVKMFYIKPIKYKGPIKKGEKLGTLLPLQKVYPGIQSHVHIENCDSSDPTAYL
26.3
3. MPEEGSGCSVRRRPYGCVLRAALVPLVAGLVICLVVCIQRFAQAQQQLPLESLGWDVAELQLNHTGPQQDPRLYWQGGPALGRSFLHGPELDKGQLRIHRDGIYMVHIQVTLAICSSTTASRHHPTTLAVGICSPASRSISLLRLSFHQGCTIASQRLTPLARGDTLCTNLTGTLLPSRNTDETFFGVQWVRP
26.6
4. MAPAQRPLLPLLLLLLPLPPPPFARAEDAARANSDRYAVYWNRSNPRFHAGAGDDGGGYTVEVSINDYLDIYCPHYGAPLPPAERMEHYVLYMVNGEGHASCDHRQRGFKRWECNRPAAPGGPLKFSEKFQLFTPFSLGFEFRPGHEYYYISATPPNAVDRPCLRLKVYVRPTNETLYEAPEPIFTSNNSCSSPGGCRLFLSTIPVLWTLLGS
27.3

Provide reported percentage of EdU-negative for each item, in the same order as listed.
1. MASTSYDYCRVPMEDGDKRCKLLLGIGILVLLIIVILGVPLIIFTIKANSEACRDGLRAVMECRNVTHLLQQELTEAQKGFQDVEAQAATCNHTVMALMASLDAEKAQGQKKVEELEGEITTLNHKLQDASAEVERLRRENQVLSVRIADKKYYPSSQDSSSAAAPQLLIVLLGLSALLQ
2. MAILMLSLQLILLLIPSISHEAHKTSLSSWKHDQDWANVSNMTFSNGKLRVKGIYYRNADICSRHRVTSAGLTLQDLQLWCNLRSVARGQIPSTL [Q6UY13]
3. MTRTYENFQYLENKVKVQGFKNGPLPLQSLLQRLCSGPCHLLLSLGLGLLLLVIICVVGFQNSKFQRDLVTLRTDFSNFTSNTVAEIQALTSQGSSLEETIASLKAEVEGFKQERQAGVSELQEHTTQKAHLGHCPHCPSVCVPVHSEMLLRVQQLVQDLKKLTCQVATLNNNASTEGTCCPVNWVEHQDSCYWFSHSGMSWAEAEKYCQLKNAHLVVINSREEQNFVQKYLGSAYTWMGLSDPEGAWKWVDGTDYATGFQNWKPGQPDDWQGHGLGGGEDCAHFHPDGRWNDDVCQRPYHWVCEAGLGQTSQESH [Q8IUN9]

1. 26.7
2. 27.8
3. 26.5
